quantity-name: melting point

>>> assay_result("O=C(c1ccc(-c2ccc(=O)[nH]n2)cc1)N1CCC[C@H]1CN1CCCC1")
"62 to 66 °C"
>>> assay_result("CCOc1cc2c3c(c4cc(OCC)c(OCC)cc4c2cc1OCC)C(=O)C=CC3=O")
"188 to 190 °C"
>>> assay_result("CCC(CC)(CC(=O)Nc1cccc(OCc2ccc3ccc(F)cc3n2)c1)C(=O)OC")
"92 to 93 °C"

---

Here the recorded melting point is given for each entry.
quantity-name: melting point

>>> assay_result("CN(C(=O)CCS(C)(=O)=O)c1cn(-c2cccnc2)nc1Cl")
"90 to 91 °C"
>>> assay_result("O=C1C(c2cc3c(cc2O)OCCC3)c2ccccc2N1C(c1ccccc1)c1ccccc1 (stereo not drawn)")
"207 to 210 °C"
>>> assay_result("c1ccc(Sc2cc(-c3ccccc3)n[nH]2)cc1")
"99 to 100 °C"

---

In this section we review reported melting point values for a set of compounds.
quantity-name: melting point

>>> assay_result("O=[N+]([O-])c1ccccc1N1CCc2ccccc21")
"62 to 64 °C"
>>> assay_result("NC(=O)c1ncn2c1NCCC2c1cccc(C(F)(F)F)c1 (stereo not drawn)")
"179 to 181 °C"
>>> assay_result("Cc1sc(Br)c(C)c1C(=O)O")
"183 to 184 °C"

---

Listed next: entries and their corresponding melting point.
quantity-name: melting point

>>> assay_result("CCN(C(=O)Cl)c1ccc2c(c1)OCO2")
"68 to 69 °C"
>>> assay_result("O=C1NC(=O)C(Cc2ccc(OCCN3C(=O)SC(c4ccccc4)C3=O)cc2)S1 (configuration not stated)")
"67 °C"
>>> assay_result("COC(=O)COC(=O)Cc1cc(Oc2ccc(C(F)(F)F)cc2Cl)ccc1[N+](=O)[O-]")
"79.2 to 80.1 °C"
>>> assay_result("C[C@H]1CN(c2c(F)cc3c(=O)c(C(=O)O)cn(CCF)c3c2F)C[C@H]1NC(=O)OC(C)(C)C (relative stereo)")
"217 to 219 °C"
>>> assay_result("Cc1noc(NS(=O)(=O)c2cccs2)c1Br")
"125 to 127 °C"
>>> assay_result("O=C1CCc2cc(C(O)c3ccccc3)ccc2N1 (configuration not stated)")
"175 °C"
>>> assay_result("CCCOc1cc(C)ccc1C1=NC(=O)C2=NC=NC2=N1")
"323 to 325 °C"

---

In this section, each of the compounds is paired with its reported melting point.
quantity-name: melting point (°C)

>>> assay_result("CN(C(=O)C1CCn2cccc21)c1ccccc1 (stereo not drawn)")
112
>>> assay_result("CCCCCCCCCCCCCCCCS(=O)(=O)NCCc1ccc(OCC(=O)O)cc1")
138

---

melting point values for the compounds below.
quantity-name: melting point

>>> assay_result("NC(=O)CC(=O)c1cn2c3c(cccc13)CCC2")
"200 to 201 °C"
>>> assay_result("O=C(O)COc1ccc(C(=NO)c2ccccc2F)c(Cl)c1Cl")
"91 to 96 °C"
>>> assay_result("CCCNCCc1ccc(NS(=O)(=O)c2ccc(OC(F)(F)F)cc2)cc1")
"151 to 154 °C"
>>> assay_result("CC1(C)CCC(C)(C)c2cc3sc(-c4ccc(C(=O)O)cc4)cc3cc21")
"291 to 292 °C"
>>> assay_result("COc1cc(CCCC(O)C(=O)OC(C)C)ccc1OCc1nc(-c2ccco2)oc1C (stereo not drawn)")
"75 to 76 °C"
>>> assay_result("Cc1noc(NS(=O)(=O)c2ccccc2-c2ccc(-c3ncco3)cc2CC(=O)N(C)C)c1C")
"89 to 96 °C"
>>> assay_result("CC(C)(C)OC(=O)N1CC[C@@H]2Nc3cccc(Br)c3[C@@H]2CC1 (relative stereo)")
"124 °C"
>>> assay_result("CC(C)(C#N)c1cc(C(=O)c2cccnc2)cc(C(C)(C)C#N)c1")
"87 to 89 °C"
